target.or.system: mMC5R (Mus musculus, UniProt P41149)
Sequence (P41149 whole entry): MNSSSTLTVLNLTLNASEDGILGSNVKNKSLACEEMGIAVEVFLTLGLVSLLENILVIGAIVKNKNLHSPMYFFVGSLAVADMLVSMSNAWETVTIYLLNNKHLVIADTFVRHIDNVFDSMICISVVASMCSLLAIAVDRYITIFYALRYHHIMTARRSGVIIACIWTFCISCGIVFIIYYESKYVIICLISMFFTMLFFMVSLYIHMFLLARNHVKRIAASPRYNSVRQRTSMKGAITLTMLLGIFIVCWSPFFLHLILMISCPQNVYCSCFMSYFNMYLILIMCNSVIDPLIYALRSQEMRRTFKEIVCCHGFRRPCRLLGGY
protocol.details: CRE/β-galactosidase reporter gene bioassay, agonist activity at mMC5R
Type: cell-based
measurement.context: fold difference in EC50 vs peptide 1; negative prefix = more potent than 1
Square brackets hold non-standard residues; d marks the D form. Peptide text beside a SMILES is read from it. * marks the point of attachment. dBip = N[C@H](Cc1ccc(-c2ccccc2)cc1)C(=O)O; 1Nal = N[C@@H](Cc1cccc2ccccc12)C(=O)O; Octanoyl = CCCCCCCC(=O)*
measurement.type: mMC5R Fold Diff.

A = CCCCCCCC(=O)N[C@@H](Cc1c[nH]c2ccccc12)C(=O)N[C@H](Cc1ccccc1)C(=O)N[C@@H](CCCNC(=N)N)C(=O)N[C@@H](Cc1c[nH]c2ccccc12)C(N)=O [Peptide 10, Octanoyl-Trp-DPhe-Arg-Trp-NH2] (Octanoyl-W[dF]RW-NH2)
B = CC(=O)N[C@@H](Cc1ccccc1)C(=O)N[C@H](Cc1ccc(-c2ccccc2)cc1)C(=O)N[C@@H](CCCNC(=N)N)C(=O)N[C@@H](Cc1c[nH]c2ccccc12)C(N)=O [Peptide 20, Ac-Phe-DBip-Arg-Trp-NH2] (Ac-F[dBip]RW-NH2)
In: Identify the entry with the larger mMC5R Fold Diff.. Options: A and B Selection: enter the item's label.
Out: B
(B: 94, A: 11)

A = CC(=O)N[C@@H](Cc1c[nH]c2ccccc12)C(=O)N[C@H](Cc1ccccc1)C(=O)N[C@@H](CCCNC(=N)N)C(=O)N[C@@H](Cc1cccc2ccccc12)C(N)=O [Peptide 24, Ac-Trp-DPhe-Arg-Nal(1’)-NH2] (Ac-W[dF]R[1Nal]-NH2)
B = CCCCCCCC(=O)N[C@H](Cc1c[nH]cn1)C(=O)N[C@H](Cc1ccccc1)C(=O)N[C@@H](CCCNC(=N)N)C(=O)N[C@@H](Cc1c[nH]c2ccccc12)C(N)=O [Peptide 9, Octanoyl-DHis-DPhe-Arg-Trp-NH2]
In: Which value of mMC5R Fold Diff. is numerically greater: that of A or that of B ? Choose, then provide that item's label.
Out: A

----------
target.or.system: mMC1R (Mus musculus)
Sequence (Q01727 whole entry): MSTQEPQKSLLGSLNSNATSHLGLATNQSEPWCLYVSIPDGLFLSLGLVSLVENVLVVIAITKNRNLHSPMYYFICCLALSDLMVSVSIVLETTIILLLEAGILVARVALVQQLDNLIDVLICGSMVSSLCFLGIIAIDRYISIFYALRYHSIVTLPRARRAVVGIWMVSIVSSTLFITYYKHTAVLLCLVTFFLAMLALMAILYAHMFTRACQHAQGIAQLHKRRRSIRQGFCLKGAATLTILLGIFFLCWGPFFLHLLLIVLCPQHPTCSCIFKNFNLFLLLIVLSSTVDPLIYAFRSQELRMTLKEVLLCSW
protocol.details: CRE/β-galactosidase reporter gene bioassay, agonist activity at mMC1R
Format: cell-based
measurement.context: fold difference in EC50 vs peptide 1; negative prefix = more potent than 1
Square brackets hold non-standard residues; d marks the D form. Peptide text beside a SMILES is read from it. * marks the point of attachment. dPhe(4-I) = N[C@H](Cc1ccc(I)cc1)C(=O)O; d2Nal = N[C@H](Cc1ccc2ccccc2c1)C(=O)O; 4Pal = N[C@@H](Cc1ccncc1)C(=O)O; Tic = O=C(O)[C@@H]1Cc2ccccc2CN1; Octanoyl = CCCCCCCC(=O)*
measurement.type: mMC1R Fold Diff

I = CCCCCCCC(=O)N[C@@H](Cc1c[nH]cn1)C(=O)N[C@H](Cc1ccccc1)C(=O)N[C@@H](CCCNC(=N)N)C(=O)N[C@@H](Cc1ccccc1)C(N)=O [Peptide 5, Octanoyl-His-DPhe-Arg-Phe-NH2] (Octanoyl-H[dF]RF-NH2)
II = CCCCCCCC(=O)N[C@@H](Cc1c[nH]cn1)C(=O)N[C@H](Cc1ccccc1)C(=O)N[C@@H](CCCNC(=N)N)C(=O)N1Cc2ccccc2C[C@H]1C(N)=O [Peptide 4, Octanoyl-His-DPhe-Arg-Tic-NH2] (Octanoyl-H[dF]R[Tic]-NH2)
III = CC(=O)N[C@@H](Cc1ccncc1)C(=O)N[C@H](Cc1ccc(I)cc1)C(=O)N[C@@H](CCCNC(=N)N)C(=O)N[C@@H](Cc1c[nH]c2ccccc12)C(N)=O [Peptide 16, Ac-4PAL-(pI)DPhe-Arg-Trp-NH2] (Ac-[4Pal][dPhe(4-I)]RW-NH2)
IV = CC(=O)N[C@@H](Cc1c[nH]c2ccccc12)C(=O)N[C@H](Cc1ccccc1)C(=O)N[C@@H](CCCNC(=N)N)C(=O)N[C@H](Cc1ccc2ccccc2c1)C(N)=O [Peptide 26, Ac-Trp-DPhe-Arg-DNal(2’)-NH2] (Ac-W[dF]R[d2Nal]-NH2)
In: Rank by decreasing mMC1R Fold Diff the items listed here. To answer, write out the labels according to the requested order.
Out: IV, III, I, II
